- Tested on: MCF7
- PROTOCOL_SUMMARY: Cytotoxicity against ER-positive human MCF7 cells assessed as growth inhibition after 48 hrs by SRB assay
- Format: functional, cell-based
- STATED_CONDITIONS: MCF7, 48 h
Form field: IC50 (one value per entry).

Incoming: GET /values?readout=IC50&item= C[C@]12CCC(=O)C=C1CC[C@@H]1[C@@H]2CC[C@]2(C)/C(=C/c3ccccn3)CC[C@@H]12
Outgoing: > 100 µM

---
Incoming: GET /values?readout=IC50&item= C[C@]12CCC(=O)C=C1CC[C@@H]1[C@@H]2CC[C@@]2(C)[C@H]1CC[C@@]2(O)Cc1ccccn1
Outgoing: > 100 µM

====

Form field: pIC50 (one value per entry).
- System: MRC5
- PROTOCOL_SUMMARY: Cytotoxicity against human MRC5 cells assessed as growth inhibition after 48 hrs by SRB assay
- Format: cell-based
- STATED_CONDITIONS: MRC5, 48 h
pIC50: −log10 of the molar value.

Incoming: Notebook: pull reported pIC50 for MRC5, entry C[C@]12CCC(=O)C=C1CC[C@@H]1[C@@H]2CC[C@@]2(C)[C@H]1CC[C@@]2(O)Cc1ccccn1
Outgoing: < 4.00

# input for lookup
Incoming: Notebook: pull reported pIC50 for MRC5, entry C[C@]12CCC(=O)C=C1CC[C@@H]1[C@@H]2CC[C@]2(C)/C(=C/c3ccccn3)CC[C@@H]12
Outgoing: < 4.00

====

- Test system: HT-29
- PROTOCOL_SUMMARY: Cytotoxicity against human HT-29 cells assessed as growth inhibition after 48 hrs by MTT assay
- Assay type: functional, cell-based
- STATED_CONDITIONS: HT-29, 48 h
MEASURED_METRIC: pIC50
Remember the convention: pIC50 equals -log10 of concentration in molar.

Incoming: GET /values?readout=pIC50&item= C#CCC[C@@]1(C)C(=O)CC[C@@H]2[C@@H]1CC[C@@]1(C)[C@H]2CC[C@@]1(O)Cc1ccccn1
Outgoing: 5.19

Incoming: Can you handle C[C@]12CC/C(=N\N)C=C1CC[C@@H]1[C@@H]2CC[C@]2(C)/C(=C/c3ccccn3)CC[C@@H]12 next?
Outgoing: 4.29

Incoming: Can you handle COc1cccc2c1C(=O)c1c(O)c3c(c(O)c1C2=O)C[C@@](O)(C(=O)CO)C[C@@H]3O[C@H]1C[C@H](N)[C@H](O)[C@H](C)O1 next?
Outgoing: 6.49

# input for lookup
Incoming: GET /values?readout=pIC50&item= C[C@]12CC[C@H]3[C@@H](CC[C@@]4(O)C=CCC[C@]34C)[C@@H]1CC/C2=C\c1ccccn1
Outgoing: 4.24

====

- Test system: HT-29
- PROTOCOL_SUMMARY: Cytotoxicity against human HT-29 cells assessed as growth inhibition after 48 hrs by MTT assay
- Assay type: functional, cell-based
- STATED_CONDITIONS: HT-29, 48 h
Form field: IC50 (one value per entry).

Incoming: GET /values?readout=IC50&item= C[C@]12CC[C@H]3[C@@H](CC[C@@]4(O)C=CCC[C@]34C)[C@@H]1CC[C@@]2(O)Cc1ccccn1
Outgoing: > 100 µM

---
Incoming: GET /values?readout=IC50&item= C[C@]12CCC(=O)C(O)=C1CC[C@@H]1[C@@H]2CC[C@]2(C)C(=O)CC[C@@H]12 [FORMESTANE]
Outgoing: > 100 µM

Incoming: Can you handle C[C@]12CC/C(=N\N)C=C1CC[C@@H]1[C@@H]2CC[C@@]2(C)[C@H]1CC[C@@]2(O)Cc1ccccn1 next?
Outgoing: > 100 µM
